# Tested On: GSK3b (Glycogen synthase kinase-3 beta) (Homo sapiens)
# Sequence (P49841 whole entry): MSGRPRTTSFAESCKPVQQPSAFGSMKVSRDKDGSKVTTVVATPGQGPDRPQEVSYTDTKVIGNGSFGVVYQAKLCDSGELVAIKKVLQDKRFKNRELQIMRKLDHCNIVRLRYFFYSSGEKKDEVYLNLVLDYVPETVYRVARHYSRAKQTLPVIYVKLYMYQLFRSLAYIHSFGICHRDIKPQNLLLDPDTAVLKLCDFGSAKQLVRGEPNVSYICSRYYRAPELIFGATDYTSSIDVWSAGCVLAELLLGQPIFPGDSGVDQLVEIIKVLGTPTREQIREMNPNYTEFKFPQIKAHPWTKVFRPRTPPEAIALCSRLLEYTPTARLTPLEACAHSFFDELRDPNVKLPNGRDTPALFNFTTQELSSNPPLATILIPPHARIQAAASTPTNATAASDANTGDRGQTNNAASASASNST
# Procedure Text: Assay 6 - GSK3b assay (ThermoFisher, FRET Z-Lyte)
# Type: biochemical
# Run Conditions: geometric mean; ATP Conc: 10.000 μM; read-out: Assay 6 (GSK3B FRET-Z-Lyte CR) GMean IC50 (μM) ATP Conc: 10.000
Property Label: log10 IC50 (log10 of the value in µM)
Note the log scale: values are log10 of IC50 expressed in µM.

Here's what some known entries look like.
Molecule: O=c1ccc(OC(F)F)cn1-c1ccc(N[C@H]2CC[C@H](Nc3nc4cccnc4s3)C2)nc1 [Example 77]
log10 IC50: 0.67

Molecule: COc1ccc(=O)n(-c2ccc(N[C@H]3CC[C@H](Nc4nc5cccnc5o4)C3)nc2)c1 [Example 14]
log10 IC50: -0.37

// fetch log10 IC50 given entry O=c1ccccn1-c1ccc(N[C@H]2CC[C@H](Nc3nc4cccnc4[nH]3)C2)nc1 [Example 46]
-0.37

Return log10 IC50 (reported value) for this molecule: N#Cc1ccc2sc(N[C@H]3CC[C@H](Nc4ccc(-n5ccccc5=O)cn4)C3)nc2c1 [Example 9]
0.18

Tell us which log10 IC50 value is on record for O=c1ccccn1-c1ccc(N[C@H]2CC[C@H](Nc3nc4cc(Cl)cnc4[nH]3)C2)nc1 [Example 47]
-0.48

Report measured log10 IC50; entry is O=C(O)c1ccc(=O)n(-c2ccc(N[C@H]3CC[C@H](Nc4nc5cccnc5[nH]4)C3)nc2)c1 [Example 44]
0.90

Cited source for all entries: patent US20240239767A1
